test system: mice with bleomycin-induced pulmonary fibrosis; test: Pulmonary function (Flexivent) in mice with pulmonary fibrosis; format: in vivo, C57BL/6 mice; settings: Table 3 groups, 2 mg/kg i.p.; 28th day after model construction
Bridge positions count the residues as written; N and C are the ends. Square brackets hold non-standard residues; d marks the D form. Peptide text beside a SMILES is read from it. S5 = C=CCCC[C@](C)(N)C(=O)O
READOUT TYPE: Dynamic resistance (cmH2O · s/Ml)
Numbers only, in cmH2O · s/Ml.

Give a short answer stating reported Dynamic resistance (cmH2O · s/Ml) for CSCC[C@H](NC(=O)[C@H](CC(C)C)NC(=O)[C@@H](N)Cc1c[nH]cn1)C(=O)N[C@@H](C)C(=O)N[C@@H](CS)C(=O)N[C@@H](Cc1ccccc1)C(=O)N[C@H](C(=O)N[C@@H](CS)C(=O)N[C@@]1(C)CCCC=CCCC[C@@](C)(C(=O)N[C@@H](CCCCN)C(=O)N[C@@H](CCCNC(=N)N)C(=O)O)NC(=O)[C@H](CC(C)C)NC(=O)[C@H](CCCCN)NC(=O)[C@H](CCCCN)NC1=O)[C@@H](C)O [S9] (H-HLMACFTC[S5]KKL[S5]KR-OH; staple 9-13; N-terminus and C-terminus assumed) .
1.033

###

tested on: mice with bleomycin-induced pulmonary fibrosis; test: Pulmonary function (Flexivent) in mice with pulmonary fibrosis; format: in vivo, C57BL/6 mice; settings: Table 3 groups, 2 mg/kg i.p.; 28th day after model construction
Bridge positions count the residues as written; N and C are the ends. Square brackets hold non-standard residues; d marks the D form. Peptide text beside a SMILES is read from it. S5 = C=CCCC[C@](C)(N)C(=O)O
READOUT TYPE: Dynamic elasticity (cmH2O./mL)
Numbers only, in cmH2O./mL.

Give a short answer stating reported Dynamic elasticity (cmH2O./mL) for CSCC[C@H](NC(=O)[C@H](CC(C)C)NC(=O)[C@@H](N)Cc1c[nH]cn1)C(=O)N[C@@H](C)C(=O)N[C@@H](CS)C(=O)N[C@@H](Cc1ccccc1)C(=O)N[C@@]1(C)CCCC=CCCC[C@@](C)(C(=O)N[C@@H](CC(C)C)C(=O)N[C@@H](CCCCN)C(=O)N[C@@H](CCCCN)C(=O)N[C@@H](CCCNC(=N)N)C(=O)O)NC(=O)[C@H](CCCCN)NC(=O)[C@H](C)NC(=O)[C@H](CS)NC1=O [S7] (H-HLMACF[S5]CAK[S5]LKKR-OH; staple 7-11; N-terminus and C-terminus assumed) .
51

###

experiment: α-helix ratio of polypeptides by circular dichroism; type: physicochemical; details: PBS solution, 1 mg/mL
Bridge positions count the residues as written; N and C are the ends. Square brackets hold non-standard residues; d marks the D form. Peptide text beside a SMILES is read from it. S5 = C=CCCC[C@](C)(N)C(=O)O
READOUT TYPE: α-helicity (%)
Answers are plain numbers, in %.

{"COMPOUND": "CSCC[C@H](NC(=O)[C@H](CC(C)C)NC(=O)[C@@H](N)Cc1c[nH]cn1)C(=O)N[C@@]1(C)CCCC=CCCC[C@@](C)(C(=O)N[C@@H](C)C(=O)N[C@@H](CCCCN)C(=O)N[C@@H](CCCCN)C(=O)N[C@@H](CC(C)C)C(=O)N[C@@H](CCCCN)C(=O)N[C@@H](CCCCN)C(=O)N[C@@H](CCCNC(=N)N)C(=O)O)NC(=O)[C@H]([C@@H](C)O)NC(=O)[C@H](Cc2ccccc2)NC(=O)[C@H](CS)NC1=O [S4] (H-HLM[S5]CFT[S5]AKKLKKR-OH; staple 4-8; N-terminus and C-terminus assumed)", "RECORDED MEASUREMENT": 33.6}
{"COMPOUND": "CSCC[C@H](NC(=O)[C@H](CC(C)C)NC(=O)[C@@H](N)Cc1c[nH]cn1)C(=O)N[C@@H](C)C(=O)N[C@@H](CS)C(=O)N[C@@H](Cc1ccccc1)C(=O)N[C@H](C(=O)N[C@@H](CS)C(=O)N[C@@H](C)C(=O)N[C@@]1(C)CCCC=CCCC[C@@](C)(C(=O)N[C@@H](CCCNC(=N)N)C(=O)O)NC(=O)[C@H](CCCCN)NC(=O)[C@H](CC(C)C)NC(=O)[C@H](CCCCN)NC1=O)[C@@H](C)O [S10] (H-HLMACFTCA[S5]KLK[S5]R-OH; staple 10-14; N-terminus and C-terminus assumed)", "RECORDED MEASUREMENT": 31.5}
{"COMPOUND": "CSCC[C@H](NC(=O)[C@H](CC(C)C)NC(=O)[C@@H](N)Cc1c[nH]cn1)C(=O)N[C@@H](C)C(=O)N[C@@H](CS)C(=O)N[C@@H](Cc1ccccc1)C(=O)N[C@H](C(=O)N[C@@H](CS)C(=O)N[C@@H](C)C(=O)N[C@@H](CCCCN)C(=O)N[C@@H](CCCCN)C(=O)N[C@@H](CC(C)C)C(=O)N[C@@H](CCCCN)C(=O)N[C@@H](CCCCN)C(=O)N[C@@H](CCCNC(=N)N)C(=O)O)[C@@H](C)O [MR2] (H-HLMACFTCAKKLKKR-OH; N-terminus and C-terminus assumed)", "RECORDED MEASUREMENT": 0.0}

Next, consider the following compound.
Give a short answer stating reported α-helicity (%) for CSCC[C@H](NC(=O)[C@H](CC(C)C)NC(=O)[C@@H](N)Cc1c[nH]cn1)C(=O)N[C@@H](C)C(=O)N[C@@H](CS)C(=O)N[C@@]1(C)CCCC=CCCC[C@@](C)(C(=O)N[C@@H](CCCCN)C(=O)N[C@@H](CC(C)C)C(=O)N[C@@H](CCCCN)C(=O)N[C@@H](CCCCN)C(=O)N[C@@H](CCCNC(=N)N)C(=O)O)NC(=O)[C@H](C)NC(=O)[C@H](CS)NC(=O)[C@H]([C@@H](C)O)NC1=O [S6] (H-HLMAC[S5]TCA[S5]KLKKR-OH; staple 6-10; N-terminus and C-terminus assumed) .
36.4

src = patent US20210179680A1
